Source listed as patent US11236073B2.

- Test summary: Chemical stability experiment (HPLC purity after storage)
- Assay type: physicochemical
- Experimental context: dry condition at 60° C., 1 day, HPLC
Endpoint label: Purity (%)

CC(O)c1cc(C(=O)N[C@@H](C)Cn2ccc(-c3ccc(C#N)c(Cl)c3)n2)n[nH]1 (some centres unmarked) [ODM-201 Form 1] = 99.7
CC(O)c1cc(C(=O)N[C@@H](C)Cn2ccc(-c3ccc(C#N)c(Cl)c3)n2)n[nH]1 (some centres unmarked) [amorphous ODM-201, reference compound] = 99.7
CC(O)c1cc(C(=O)N[C@@H](C)Cn2ccc(-c3ccc(C#N)c(Cl)c3)n2)n[nH]1 (some centres unmarked) [ODM-201 Form 2] = 99.6
CC(O)c1cc(C(=O)N[C@@H](C)Cn2ccc(-c3ccc(C#N)c(Cl)c3)n2)n[nH]1 (some centres unmarked) [ODM-201 Form 4] = 99.2
CC(O)c1cc(C(=O)N[C@@H](C)Cn2ccc(-c3ccc(C#N)c(Cl)c3)n2)n[nH]1 (some centres unmarked) [ODM-201 Form 5] = 99.6

----------
- Test summary: Chemical stability experiment (HPLC purity after storage)
- Assay type: physicochemical
- Experimental context: dry condition at 60° C., 7 days, HPLC
Endpoint label: Purity (%)

CC(O)c1cc(C(=O)N[C@@H](C)Cn2ccc(-c3ccc(C#N)c(Cl)c3)n2)n[nH]1 (some centres unmarked) [ODM-201 Form 5] = 99.5
CC(O)c1cc(C(=O)N[C@@H](C)Cn2ccc(-c3ccc(C#N)c(Cl)c3)n2)n[nH]1 (some centres unmarked) [ODM-201 Form 2] = 99.6
CC(O)c1cc(C(=O)N[C@@H](C)Cn2ccc(-c3ccc(C#N)c(Cl)c3)n2)n[nH]1 (some centres unmarked) [ODM-201 Form 1] = 99.6
CC(O)c1cc(C(=O)N[C@@H](C)Cn2ccc(-c3ccc(C#N)c(Cl)c3)n2)n[nH]1 (some centres unmarked) [ODM-201 Form 4] = 99.1
CC(O)c1cc(C(=O)N[C@@H](C)Cn2ccc(-c3ccc(C#N)c(Cl)c3)n2)n[nH]1 (some centres unmarked) [amorphous ODM-201, reference compound] = 98.2

----------
- Test summary: Apparent water solubility
- Assay type: physicochemical
- Experimental context: 25 ± 2° C., stirred 1 hour
Endpoint label: Solubility (µg/mL)

CC(O)c1cc(C(=O)N[C@@H](C)Cn2ccc(-c3ccc(C#N)c(Cl)c3)n2)n[nH]1 (stereo partly shown) [ODM-201 Form 2] = 27.6
CC(O)c1cc(C(=O)N[C@@H](C)Cn2ccc(-c3ccc(C#N)c(Cl)c3)n2)n[nH]1 (stereo partly shown) [ODM-201 Form 5] = 17.7

P: CC(O)c1cc(C(=O)N[C@@H](C)Cn2ccc(-c3ccc(C#N)c(Cl)c3)n2)n[nH]1 (stereo partly shown) [ODM-201 Form 4]
Q: CC(O)c1cc(C(=O)N[C@@H](C)Cn2ccc(-c3ccc(C#N)c(Cl)c3)n2)[nH]n1 (stereo partly shown) [ODM-201 Form 3]
QUERY: Please tell me which of the two, P or Q , has the higher reported Solubility value. Return value: the label identifying the chosen record.
RESULT: P

----------
- Test summary: Apparent water solubility
- Assay type: physicochemical
- Experimental context: 37 ± 2° C., stirred 1 hour
Endpoint label: Solubility (mg/mL)

Illustrative cases are given below, each with its answer.
CC(O)c1cc(C(=O)N[C@@H](C)Cn2ccc(-c3ccc(C#N)c(Cl)c3)n2)n[nH]1 (some centres unmarked) [ODM-201 Form 4] = 0.0886
CC(O)c1cc(C(=O)N[C@@H](C)Cn2ccc(-c3ccc(C#N)c(Cl)c3)n2)n[nH]1 (some centres unmarked) [ODM-201 Form 2] = 0.0548
CC(O)c1cc(C(=O)N[C@@H](C)Cn2ccc(-c3ccc(C#N)c(Cl)c3)n2)[nH]n1 (some centres unmarked) [ODM-201 Form 3] = 0.0243

P: CC(O)c1cc(C(=O)N[C@@H](C)Cn2ccc(-c3ccc(C#N)c(Cl)c3)n2)n[nH]1 (some centres unmarked) [ODM-201 Form 5]
Q: CC(O)c1cc(C(=O)N[C@@H](C)Cn2ccc(-c3ccc(C#N)c(Cl)c3)n2)n[nH]1 (some centres unmarked) [ODM-201 Form 1]
QUERY: Of P and Q , which shows the smaller Solubility value? State the label of the item chosen.
RESULT: Q
(Q: 0.0174 mg/mL, P: 0.0295 mg/mL)
